Source listed as paper PMC6556873.

# assay_summary: in vitro
# Parameters: species or system HB2, CCD841
# experimental_context: human, hek293 cells
Please go through the items and note down their viability at 48 h, 10 µM.
Write down the numeric answer in % and omit the unit.

Prompt line: viability at 48 h, 10 µM lookup needed for O=C(CCl)NC(=O)NC1CC1 [PCM-0102411] , thanks.
Response line: 109

Prompt line: Which measured viability at 48 h, 10 µM value corresponds to O=C(CCl)Nc1cccc2ccccc12 [PCM-0102396] ?
Response line: 2.4

Prompt line: What does the data say about its viability at 48 h, 10 µM? Entry: O=C(CCl)NC(=O)c1cccc2ccccc12 [PCM-0102694]
Response line: 111

Prompt line: viability at 48 h, 10 µM for C=CC(=O)Nc1ccc2c(c1)NC(=O)CO2 [PCM-0102499] ?
Response line: 71.7

Prompt line: Look up viability at 48 h, 10 µM for this compound: O=C(CCl)N1CCCC(C(F)(F)F)C1 (stereo not drawn) [PCM-0102676]
Response line: 54.4

Prompt line: Need viability at 48 h, 10 µM, item C=CC(=O)NC1CCCN(c2cnn(C)c2)C1 (stereo not drawn) [PCM-0102480]
Response line: 91.8

====

Record form. Attribute: OTUB2. Fill in for each entry.
# tested_on: OTUB2 (OTUB2A) (Homo sapiens, UniProt Q96DC9)
# Construct: full length residues 1-234, E. coli BL21(DE3)-R3, His tag removed by TEV, construct 27312 Da
# Sequence (Q96DC9 whole entry, the tested form may be a part): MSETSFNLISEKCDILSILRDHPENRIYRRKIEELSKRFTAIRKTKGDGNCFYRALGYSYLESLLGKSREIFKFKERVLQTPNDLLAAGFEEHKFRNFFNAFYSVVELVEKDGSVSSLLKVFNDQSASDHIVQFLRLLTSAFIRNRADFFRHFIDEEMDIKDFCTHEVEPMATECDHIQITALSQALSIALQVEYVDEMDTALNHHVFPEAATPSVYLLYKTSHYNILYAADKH
# Parameters: Intact protein LC/MS covalent labelling, fragments in pools of five, 200 uM each, 4 °C
# experimental_context: 24 h, 4 °C, pool of five; 200 µM; covalent
// print number alone

Prompt line: Request the reported OTUB2 associated with Cc1nn(C)c(C)c1NC(=O)CCl
Response line: 0

Prompt line: Which OTUB2 is listed for O=C(CCl)Nc1ccc(C(=O)O)cc1 ?
Response line: 0

Prompt line: Dear colleague, I am looking for the recorded OTUB2 of the following compound: CC(C)(C)c1ccc(NC(=O)CCl)cc1
Response line: 0.32

Prompt line: What value of OTUB2 has been recorded for this entry: Cc1ccc(Cl)cc1NC(=O)CCl
Response line: 0

Prompt line: Fill in the blank: the reported OTUB2 of N#CSc1ccc(NC(=O)CCl)c(Cl)c1 is ____.
Response line: 0

Prompt line: Reported OTUB2, compound C=CC(=O)Nc1ccc(Cl)cc1 : ____
Response line: 0

Prompt line: Given O=C1CC(C(F)(F)F)N(C(=O)CCl)c2ccccc2N1 (centres unmarked) , state its recorded OTUB2.
Response line: 0

Prompt line: Returns the measured OTUB2 for the input compound. Input: COc1ccc(C(=O)NC(=O)CCl)cc1
Response line: 0

Prompt line: Could you tell me which OTUB2 is on file for Cc1cc(CNC(=O)CCl)cc(C)c1O ?
Response line: 0.64

Prompt line: Given the compound CC(C)(C)c1ccc(C(=O)NNC(=O)CCl)cc1 , what is its reported OTUB2?
Response line: 0.66

Prompt line: Need OTUB2, item CC(NC(=O)CCl)c1ccc(Cl)cc1 (centres unmarked)
Response line: 0.25

====

# tested_on: NUDT7 (Homo sapiens, UniProt P0C024)
# Construct: residues 14-235, E. coli, pNIC28-Bsa4, N-terminal His6 tag removed by TEV, construct 26672 Da
# Sequence (P0C024 14-235): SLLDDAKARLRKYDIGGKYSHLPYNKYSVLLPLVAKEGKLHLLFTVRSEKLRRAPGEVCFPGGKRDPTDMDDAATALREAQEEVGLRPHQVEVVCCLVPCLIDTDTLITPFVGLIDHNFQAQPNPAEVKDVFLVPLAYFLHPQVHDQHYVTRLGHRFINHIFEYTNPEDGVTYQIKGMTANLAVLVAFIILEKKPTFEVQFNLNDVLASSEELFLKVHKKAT
# Set-up: Intact protein LC/MS covalent labelling, fragments in pools of five, 200 uM each, 4 °C
# experimental_context: 24 h, 4 °C, pool of five; 200 µM; covalent
Could you please report measured NUDT7 for the items listed next?

Prompt line: API: value(readout=NUDT7, system=NUDT7 (Homo sapiens, UniProt P0C024)) for record O=C(CCl)NC1(c2ccccc2)CCC1 [PCM-0102935]
Response line: 0.29

Prompt line: Form entry - test system: NUDT7 (Homo sapiens, UniProt P0C024); read-out: NUDT7; compound: O=C(CCl)NCC(F)(F)F [PCM-0102456]
Response line: 0

Prompt line: Notebook entry, NUDT7 (Homo sapiens, UniProt P0C024) assay: NUDT7 of C=CC(=O)N1CCC(C(=O)N(C)c2ccccc2)C1 (centres unmarked) [PCM-0102771] = ?
Response line: 0

Prompt line: For the record C=CC(=O)N1CCCC(c2nc(C(F)(F)F)cn2C)C1 (centres unmarked) [PCM-0102633] , what value of NUDT7 is listed for NUDT7 (Homo sapiens, UniProt P0C024)?
Response line: 0

Prompt line: Can you look up NUDT7 on NUDT7 (Homo sapiens, UniProt P0C024) for C=CC(=O)N1CCn2c(cc3cc(Cl)ccc32)C1 [PCM-0102661] ?
Response line: 0

Prompt line: Entry CC(C)N(CC(F)(F)F)C(=O)CCl [PCM-0102516] , system NUDT7 (Homo sapiens, UniProt P0C024): what NUDT7 was measured?
Response line: 0

Prompt line: // map C=CC(=O)Nc1cc(CC(C)(C)C)nn1C [PCM-0102686] to recorded NUDT7 (system: NUDT7 (Homo sapiens, UniProt P0C024))
Response line: 0.15

Prompt line: Write down the reported NUDT7 of C=CC(=O)N1CCc2ncsc2C1 [PCM-0102847] , test system: NUDT7 (Homo sapiens, UniProt P0C024).
Response line: 0

Prompt line: NUDT7 (Homo sapiens, UniProt P0C024) / NUDT7 / Cc1ccc(NC(=O)CCl)cc1 [PCM-0102320] : value?
Response line: 0

Prompt line: Request - read-out NUDT7 | tested on NUDT7 (Homo sapiens, UniProt P0C024) | compound CC(C)(C)OC(=O)N1CCN(C(=O)CCl)CC1 [PCM-0102786]
Response line: 0

Prompt line: Query for NUDT7 (Homo sapiens, UniProt P0C024): what NUDT7 does the record show for O=C(CCl)Nc1ccccc1N1CCCC1=O [PCM-0102375] ?
Response line: 0

Prompt line: Kindly state the measured NUDT7 obtained for O=C(CCl)NC(=O)NC1CCCCC1 [PCM-0102692] with NUDT7 (Homo sapiens, UniProt P0C024).
Response line: 0

Prompt line: Value wanted: NUDT7 (NUDT7 (Homo sapiens, UniProt P0C024)) of entry CN(C(=O)CCl)C1CCS(=O)(=O)C1 (centres unmarked) [PCM-0102178]
Response line: 0

Prompt line: State its NUDT7 on NUDT7 (Homo sapiens, UniProt P0C024): O=C(CCl)NC(=O)NC12CC3CC(CC(C3)C1)C2 [PCM-0102360]
Response line: 0

Prompt line: What is its NUDT7 for NUDT7 (Homo sapiens, UniProt P0C024)? Entry: Cl.O=C(CCl)N1CCN(Cc2cccc(Cl)c2)CC1 [PCM-0102269]
Response line: 0

Prompt line: For the record CC1CCC(N(C)C(=O)CCl)CC1 (centres unmarked) [PCM-0103019] , what value of NUDT7 is listed for NUDT7 (Homo sapiens, UniProt P0C024)?
Response line: 0

Prompt line: Record O=C(CCl)Nc1ccc(Br)cc1 [PCM-0102992] : what is its NUDT7 with NUDT7 (Homo sapiens, UniProt P0C024)?
Response line: 0.11

Prompt line: // fetch NUDT7 (Homo sapiens, UniProt P0C024) NUDT7 for O=C(CCl)N1CCN(S(=O)(=O)c2ccc3c(c2)CCC3)CC1 [PCM-0102193]
Response line: 0

Prompt line: Reported NUDT7 for NUDT7 (Homo sapiens, UniProt P0C024), given CC1(C)C2CCC1(C)C(NC(=O)CCl)C2 (centres unmarked) [PCM-0102315] ?
Response line: 0

Prompt line: # returns recorded NUDT7 (system: NUDT7 (Homo sapiens, UniProt P0C024)) for CC(c1ccc(F)cc1)N(C)C(=O)CCl (centres unmarked) [PCM-0102783]
Response line: 0.19

Prompt line: For NUDT7 (Homo sapiens, UniProt P0C024), provide NUDT7 of Cl.O=C(CCl)N1CCN(Cc2ccc3c(c2)OCO3)CC1 [PCM-0102397] please.
Response line: 0

Prompt line: Any idea what NUDT7 came out for CC(NC(=O)CCl)c1ccc(F)cc1F (centres unmarked) [PCM-0103035] on NUDT7 (Homo sapiens, UniProt P0C024)?
Response line: 0.15

Prompt line: Lab note: need NUDT7 with NUDT7 (Homo sapiens, UniProt P0C024) for entry O=C(CCl)NCc1ccc(Cl)cc1 [PCM-0102668] , please look it up.
Response line: 0

====

# tested_on: PCAF (Homo sapiens, UniProt Q92831)
# Construct: gene KAT2B
# Sequence (Q92831 whole entry): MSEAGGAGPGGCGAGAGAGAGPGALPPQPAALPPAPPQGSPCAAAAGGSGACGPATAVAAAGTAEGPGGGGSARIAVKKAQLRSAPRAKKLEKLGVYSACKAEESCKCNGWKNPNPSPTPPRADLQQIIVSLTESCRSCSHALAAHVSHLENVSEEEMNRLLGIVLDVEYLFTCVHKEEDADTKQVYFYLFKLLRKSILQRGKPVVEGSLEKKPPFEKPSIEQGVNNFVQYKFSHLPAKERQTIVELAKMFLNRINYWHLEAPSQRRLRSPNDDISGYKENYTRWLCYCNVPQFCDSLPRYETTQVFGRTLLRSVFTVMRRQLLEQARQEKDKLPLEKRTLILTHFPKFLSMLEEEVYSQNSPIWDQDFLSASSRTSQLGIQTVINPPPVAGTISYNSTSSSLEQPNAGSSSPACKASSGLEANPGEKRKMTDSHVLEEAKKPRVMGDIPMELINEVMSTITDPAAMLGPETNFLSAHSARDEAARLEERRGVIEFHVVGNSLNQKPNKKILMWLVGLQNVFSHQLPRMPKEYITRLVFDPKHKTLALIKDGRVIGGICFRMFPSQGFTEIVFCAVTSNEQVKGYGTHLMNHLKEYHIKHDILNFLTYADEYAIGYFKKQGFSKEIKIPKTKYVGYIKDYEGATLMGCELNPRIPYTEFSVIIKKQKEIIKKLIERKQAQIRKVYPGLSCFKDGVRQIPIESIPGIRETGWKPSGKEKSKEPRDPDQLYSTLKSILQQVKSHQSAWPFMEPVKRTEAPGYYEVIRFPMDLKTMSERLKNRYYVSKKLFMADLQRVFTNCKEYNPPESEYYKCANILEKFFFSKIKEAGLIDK
# Design: Intact protein LC/MS covalent labelling, fragments in pools of five, 200 uM each, 4 °C
# experimental_context: 24 h, 4 °C, pool of five; 200 µM; covalent
readout_label: PCAF
# print the numeric value only

Prompt line: Given the entry O=C(CCl)N1CCN(C(=O)c2cccs2)CC1 , what PCAF was observed with PCAF (Homo sapiens, UniProt Q92831)?
Response line: 0

Prompt line: Notebook entry, PCAF (Homo sapiens, UniProt Q92831) assay: PCAF of CCC(C)(C)NC(=O)CCl = ?
Response line: 0

Prompt line: Please provide the recorded PCAF for Cc1ccc(C(C)NC(=O)CCl)cc1C (centres unmarked) , tested on PCAF (Homo sapiens, UniProt Q92831).
Response line: 0

Prompt line: For the record CN(Cc1cccc(F)c1)C(=O)CCl , what value of PCAF is listed for PCAF (Homo sapiens, UniProt Q92831)?
Response line: 0

Prompt line: Form entry - test system: PCAF (Homo sapiens, UniProt Q92831); read-out: PCAF; molecule: Cc1cccc(N2CCN(C(=O)CCl)CC2)c1.Cl
Response line: 0

Prompt line: PCAF (Homo sapiens, UniProt Q92831) / PCAF / C=CC(=O)N1CCCC2(CCS(=O)(=O)C2)C1 (centres unmarked) : value?
Response line: 0

Prompt line: Reported PCAF for PCAF (Homo sapiens, UniProt Q92831), given Cc1ccccc1CN1CCCN(C(=O)CCl)CC1.Cl ?
Response line: 0

Prompt line: # get_value(readout= PCAF, system= PCAF (Homo sapiens, UniProt Q92831)) for CC(C)(C)OC(=O)CNC(=O)CCl
Response line: 0

Prompt line: Notebook entry, PCAF (Homo sapiens, UniProt Q92831) assay: PCAF of CC(NC(=O)CCl)c1ccc(Cl)cc1Cl (centres unmarked) = ?
Response line: 0

Prompt line: Requested read-out PCAF, target or system PCAF (Homo sapiens, UniProt Q92831), entry C=CC(=O)Nc1ccc(Br)cc1
Response line: 0

Prompt line: What value of PCAF on PCAF (Homo sapiens, UniProt Q92831) does O=C(CCl)Nc1ccc(F)c(Cl)c1 have?
Response line: 0

Prompt line: Kindly state the measured PCAF obtained for COc1ccc(NC(=O)CCl)cn1 with PCAF (Homo sapiens, UniProt Q92831).
Response line: 0

Prompt line: Missing value: PCAF, PCAF (Homo sapiens, UniProt Q92831), entry COc1ccc(C2CCCN2C(=O)CCl)cc1 (centres unmarked) . Fill in?
Response line: 0

Prompt line: // map C=CC(=O)Nc1cccc(F)c1 to recorded PCAF (system: PCAF (Homo sapiens, UniProt Q92831))
Response line: 0

Prompt line: Form field: PCAF recorded for C=CC(=O)N1CCCN(c2ccc(-c3ccccc3)nn2)CC1 with PCAF (Homo sapiens, UniProt Q92831) (enter value)
Response line: 0

Prompt line: So what PCAF did Cc1cc(S(N)(=O)=O)cc(NC(=O)CCl)c1C get with PCAF (Homo sapiens, UniProt Q92831)?
Response line: 0

Prompt line: Form field - read-out: PCAF; system: PCAF (Homo sapiens, UniProt Q92831); submitted item: O=C(CCl)N1c2ccccc2OCC1c1ccccc1 (centres unmarked)
Response line: 0

Prompt line: Request - read-out PCAF | tested on PCAF (Homo sapiens, UniProt Q92831) | molecule CC(C)c1ccc(NC(=O)CCl)cc1
Response line: 0

Prompt line: Hi! What's the reported PCAF for Cl.O=C(CCl)N1CCN(Cc2ccsc2)CC1 on PCAF (Homo sapiens, UniProt Q92831)?
Response line: 0

Prompt line: Lookup: PCAF / PCAF (Homo sapiens, UniProt Q92831) / O=C(CCl)Nc1ccc2c(c1)OCCCO2
Response line: 0

Prompt line: # value lookup — system PCAF (Homo sapiens, UniProt Q92831), readout PCAF, item C=CC(=O)NC1(c2nnc[nH]2)CCC1
Response line: 0

Prompt line: Entry C=CC(=O)NCc1ccc(F)cc1 , system PCAF (Homo sapiens, UniProt Q92831): what PCAF was measured?
Response line: 0

Prompt line: Please state recorded PCAF (tested on PCAF (Homo sapiens, UniProt Q92831)) of C=CC(=O)NC1(c2nc(C)cs2)CCOCC1
Response line: 0
